- assaySystem: T1, human tumor necrosis factor-α (rHuTNF-alpha, Biosource) (human, UniProt P01375 77-233)
- T1 construct: Bought recombinant protein coated on ELISA plates; The TNFα of the Biacore assay is not described further; also called TNFα; human TNFα
- T1 sequence (P01375 77-233 limits assumed): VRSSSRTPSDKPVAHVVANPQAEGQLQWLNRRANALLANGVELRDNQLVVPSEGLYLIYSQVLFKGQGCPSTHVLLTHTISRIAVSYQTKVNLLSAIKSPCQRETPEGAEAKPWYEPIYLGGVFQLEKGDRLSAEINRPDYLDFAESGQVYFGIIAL
- experimentalProtocol: solid-phase ELISA, Fab lysate on coated rHuTNF-alpha
- Procedure: The Fab libraries were cloned into pTrcHis2A (Cat. No. V365-20, Invitrogen, Carlsbad, Calif.). Proteins were expressed in E. coli and solid-phase ELISA was used to assess Fab binding to human TNFα. […] Substrate development was stopped by addition of 100 μL/well TMB Stop Solution (Cat. No. 50-85-05, KPL, Gaithersburg, Md.) and the absorbance was measured at 450 nm via an automated plate spectrophotometer.
endpointLabel: binding result

[[record]]
binder = "SEQ ID NO 22 (Fab, V domains shown, Fab, E. coli lysate) VH: EVQLVESGGGLVQPGGSLRLSCRASGSTFSNHWMNWVRQAPGKGLEWIGEIRSKSSNSATHYAESVKGRFIISRDDNGNSLTLEMNSLKTEDTAEYYCAQNYYGSTYDYWGQGTLVTVS VL: EIVLTQSPDFQSVTPKEKVTITCRASQFVGSSIHWYQQKPDQSPKLLIKYASESMSGVPSRFSGSGSGTDFTFTISSLEAEDAATYYCQQSHSWPFTFGPGTKVDIK"
experimentalresult = "binds"

[[record]]
binder = "SEQ ID NO 79 (Fab, V domains shown, Fab, E. coli lysate) VH: EVQLVESGGGLVQPGGSLRLSCAASQSIFSNHYMNWVRQAPGKGLEWIGEIRSKSIYGATHYAESVKGRFIISRDGNKNDLTLEMNSLKTEDTAEYYCARNYYGSTPDYWGQGTLVTVS VL: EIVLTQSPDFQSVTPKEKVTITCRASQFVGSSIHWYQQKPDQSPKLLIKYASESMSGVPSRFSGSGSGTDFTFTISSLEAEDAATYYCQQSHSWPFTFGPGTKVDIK"
experimentalresult = "binds"

[[record]]
binder = "SEQ ID NO 61 (Fab, V domains shown, Fab, E. coli lysate) VH: EVQLVESGGGLVQPGGSLRLSCRASGFIFSNHYMNWVRQAPGKGLEWIGEIRSKSIYGATHYAESVKGRFIISRDGNGNDLYLEMNSLKTEDTAEYYCARNYYGSTYDYWGQGTLVTVS VL: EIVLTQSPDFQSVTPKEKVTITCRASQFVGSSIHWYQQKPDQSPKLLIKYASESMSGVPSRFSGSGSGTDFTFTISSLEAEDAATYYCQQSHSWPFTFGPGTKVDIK"
experimentalresult = "binds"

